Tested on: Immunoglobulin E (IgE) (Homo sapiens), P01854-1
Sequence (P01854 other isoform, or with tags, fused parts or gaps): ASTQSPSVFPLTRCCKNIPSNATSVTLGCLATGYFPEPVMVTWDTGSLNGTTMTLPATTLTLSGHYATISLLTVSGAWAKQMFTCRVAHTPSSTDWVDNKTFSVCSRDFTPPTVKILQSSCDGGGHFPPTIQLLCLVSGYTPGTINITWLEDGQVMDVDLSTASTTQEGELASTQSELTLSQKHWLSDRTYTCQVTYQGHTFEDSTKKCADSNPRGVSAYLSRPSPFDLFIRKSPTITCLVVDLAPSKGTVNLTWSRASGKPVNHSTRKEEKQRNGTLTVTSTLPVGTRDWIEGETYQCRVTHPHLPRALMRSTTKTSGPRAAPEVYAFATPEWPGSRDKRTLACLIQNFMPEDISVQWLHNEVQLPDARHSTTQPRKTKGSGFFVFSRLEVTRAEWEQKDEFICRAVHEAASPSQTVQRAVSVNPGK
Experiment: filter
Conditions: 2'-OMe at 1-4,7,33-37; PS 15-16; 3' idT [2'-OMe at 1-4,7,33-37; PS linkage 15-16 (internal N = PS, not a base); 3' inverted dT cap (terminal N, left out)]; DPBS Mg/Ca, BSA
pKd: −log10 of the molar value.
measured_quantity: pKd

INSERT INTO assay_data (construct_sequence, target_or_system, result) VALUES
  ('GGGGCTACTTTATCCGTTCCTCCTAGTGGGTAGCCCC [ARC1398]', 'Immunoglobulin E (IgE) (Homo sapiens), P01854-1', 8.57);
